Task for the reader: assign each of the following binders its reported pKd.
# Assayed Target: REV7^K129A (human, UniProt Q9UI95 1-211, K129A)
# Sequence (Q9UI95 whole entry K129A): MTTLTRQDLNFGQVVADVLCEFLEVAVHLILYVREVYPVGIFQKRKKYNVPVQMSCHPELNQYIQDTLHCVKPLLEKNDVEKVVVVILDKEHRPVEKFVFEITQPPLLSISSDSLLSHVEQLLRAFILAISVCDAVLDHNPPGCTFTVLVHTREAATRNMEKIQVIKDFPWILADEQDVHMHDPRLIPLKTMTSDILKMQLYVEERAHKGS
# Assay Comment: ITC
One number for each entry, as −log10 of the molar value.

# Binder, pKd
measured = [
    ("REV3(1847-1906) (domain or fragment) MLTPTPDSSPRSTSSPSQSKNGSFTPRTANILKPLMSPPSREEIMATLLDHDLSETIYQE", 8.14),
]

Consider the record given below.
Query block: Query: pKd; subject: SHLD3(1–82) with C-terminal His6-tag (domain or fragment) MTTEVILHYRPCESDPTQLPKIAEKAIQDFPTRPLSRFIPWFPYDGSKLPLRPKRSPPVISEEAAEDVKQYLTISEHDAKSH
Result block: 8.32
